TARGET_SYSTEM: tACEdelta36NJ (tACE, C domain) (Homo sapiens, UniProt P12821)
Sequence (P12821 642-1230 limits assumed): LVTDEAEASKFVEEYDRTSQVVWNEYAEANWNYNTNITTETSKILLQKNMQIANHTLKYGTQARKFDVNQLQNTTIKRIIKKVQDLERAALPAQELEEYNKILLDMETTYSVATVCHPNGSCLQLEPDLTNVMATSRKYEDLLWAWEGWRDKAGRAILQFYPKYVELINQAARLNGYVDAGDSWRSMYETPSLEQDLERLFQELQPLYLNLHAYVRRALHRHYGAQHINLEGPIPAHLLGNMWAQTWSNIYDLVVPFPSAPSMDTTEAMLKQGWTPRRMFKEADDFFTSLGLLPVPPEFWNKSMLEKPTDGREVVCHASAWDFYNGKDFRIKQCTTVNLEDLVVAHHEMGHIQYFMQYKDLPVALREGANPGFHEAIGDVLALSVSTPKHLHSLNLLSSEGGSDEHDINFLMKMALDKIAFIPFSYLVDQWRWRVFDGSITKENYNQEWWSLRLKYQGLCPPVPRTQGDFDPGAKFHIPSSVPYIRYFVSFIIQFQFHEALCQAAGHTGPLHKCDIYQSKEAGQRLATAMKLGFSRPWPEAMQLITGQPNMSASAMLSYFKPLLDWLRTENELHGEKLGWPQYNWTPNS
PROTOCOL_SUMMARY: ACE inhibitory activity, fluorometric determination of phthaldialdehyde-derivatised His-Leu, tACE
Format: biochemical
RECORDED_CONDITIONS: in words
RESULT_TYPE: inhibitory activity for ACE as compared to lisinopril

COMPOUND	TARGET_SYSTEM	RESULT
O=C(CCC(=O)[C@H](Cc1ccccc1)NC(=O)c1ccccc1)N[C@@H](Cc1ccccc1)C(=O)O [Compound 5c]	tACEdelta36NJ (tACE, C domain) (Homo sapiens, UniProt P12821)	weak inhibitory activity
CC(C)(C)OC(=O)N[C@@H](Cc1ccccc1)C(=O)CCC(=O)N1CCC[C@H]1C(=O)O [Compound 11a]	tACEdelta36NJ (tACE, C domain) (Homo sapiens, UniProt P12821)	weak inhibitory activity
O=C(N[C@@H](Cc1ccccc1)C(=O)CCC(=O)N1CCC[C@H]1C(=O)O)c1ccccc1 [Compound 5a]	tACEdelta36NJ (tACE, C domain) (Homo sapiens, UniProt P12821)	weak inhibitory activity
O=C(CCC(=O)[C@H](Cc1ccccc1)NC(=O)c1ccccc1)N[C@@H](Cc1c[nH]c2ccccc12)C(=O)O [Compound 5b]	tACEdelta36NJ (tACE, C domain) (Homo sapiens, UniProt P12821)	weak inhibitory activity
